Answer each item with its documented ratio to parent.
B1: H2-Kb / B7 (parent)
chain 1: GQQVQQSPTSLVLQEGENAELQCNFSTSLNSMQWFYQRPGGSLVSVFYNPSGTKQSGRLTSTTVIKERRSSLHISSSQITDSGTYLCAMERDMGYKLTFGTGTSLLVDP
chain 2: EAAVTQSPRNKVAVTGGKVTLSCNQTNNHNNMYWYRQDTGHGLRLIHYSYGAGSTEKGDIPDGYKASRPSQENFSLILELATPSQTSVYFCASGDPGDQDTQYFGPGTRLLVL
chain 3: not shown
chain 4: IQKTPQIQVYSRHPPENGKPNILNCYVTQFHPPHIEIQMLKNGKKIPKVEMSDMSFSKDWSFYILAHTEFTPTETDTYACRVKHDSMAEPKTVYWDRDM
chain 5: SIINFEKL

Variants of: B1
Experiment: % of reporter cells activated (NFAT-GFP), raw; note: test concentration or dose not given here
Settings: with B7; scale: % of reporter cells activated
Give the value as a plain number.

QUERY: Please give the measured ratio to parent for this variant: chain 5 I2L
RESULT: 1.62

QUERY: Please give the measured ratio to parent for this variant: chain 5 N4S
RESULT: 1.11

QUERY: Please give the measured ratio to parent for this variant: chain 5 I3Y
RESULT: 1.2

QUERY: Please give the measured ratio to parent for this variant: chain 5 L8C
RESULT: 1.4

QUERY: Please give the measured ratio to parent for this variant: chain 5 S1P
RESULT: 1.74

QUERY: Please give the measured ratio to parent for this variant: chain 5 E6T
RESULT: 1.63

QUERY: Please give the measured ratio to parent for this variant: chain 5 L8D
RESULT: 0.615

QUERY: Please give the measured ratio to parent for this variant: chain 5 N4Y
RESULT: 1.03

QUERY: Please give the measured ratio to parent for this variant: chain 5 S1K
RESULT: 1.4

QUERY: Please give the measured ratio to parent for this variant: chain 5 F5K
RESULT: 1.74

QUERY: Please give the measured ratio to parent for this variant: chain 5 F5I
RESULT: 0.938

QUERY: Please give the measured ratio to parent for this variant: chain 5 F5Y
RESULT: 1.2

QUERY: Please give the measured ratio to parent for this variant: chain 5 E6P
RESULT: 1.25

QUERY: Please give the measured ratio to parent for this variant: chain 5 K7N
RESULT: 0.954

QUERY: Please give the measured ratio to parent for this variant: chain 5 K7W
RESULT: 0.769

QUERY: Please give the measured ratio to parent for this variant: chain 5 K7V
RESULT: 1.17

QUERY: Please give the measured ratio to parent for this variant: chain 5 I3N
RESULT: 1.62

QUERY: Please give the measured ratio to parent for this variant: chain 5 I2D
RESULT: 1.45

QUERY: Please give the measured ratio to parent for this variant: chain 5 E6I
RESULT: 1.14

QUERY: Please give the measured ratio to parent for this variant: chain 5 E6L
RESULT: 1

QUERY: Please give the measured ratio to parent for this variant: chain 5 I3C
RESULT: 1.58

QUERY: Please give the measured ratio to parent for this variant: chain 5 I3Q
RESULT: 1.65

QUERY: Please give the measured ratio to parent for this variant: chain 5 E6R
RESULT: 1.46

QUERY: Please give the measured ratio to parent for this variant: chain 5 I2K
RESULT: 1.51

QUERY: Please give the measured ratio to parent for this variant: chain 5 F5P
RESULT: 1.74

QUERY: Please give the measured ratio to parent for this variant: chain 5 N4W
RESULT: 1.28

QUERY: Please give the measured ratio to parent for this variant: chain 5 F5M
RESULT: 1.68

QUERY: Please give the measured ratio to parent for this variant: chain 5 I2Y
RESULT: 1.48

QUERY: Please give the measured ratio to parent for this variant: chain 5 K7I
RESULT: 1.25
